# Cytochrome P450 2C9 (Homo sapiens, UniProt P11712): IC50 values follow
# Sequence (P11712 whole entry): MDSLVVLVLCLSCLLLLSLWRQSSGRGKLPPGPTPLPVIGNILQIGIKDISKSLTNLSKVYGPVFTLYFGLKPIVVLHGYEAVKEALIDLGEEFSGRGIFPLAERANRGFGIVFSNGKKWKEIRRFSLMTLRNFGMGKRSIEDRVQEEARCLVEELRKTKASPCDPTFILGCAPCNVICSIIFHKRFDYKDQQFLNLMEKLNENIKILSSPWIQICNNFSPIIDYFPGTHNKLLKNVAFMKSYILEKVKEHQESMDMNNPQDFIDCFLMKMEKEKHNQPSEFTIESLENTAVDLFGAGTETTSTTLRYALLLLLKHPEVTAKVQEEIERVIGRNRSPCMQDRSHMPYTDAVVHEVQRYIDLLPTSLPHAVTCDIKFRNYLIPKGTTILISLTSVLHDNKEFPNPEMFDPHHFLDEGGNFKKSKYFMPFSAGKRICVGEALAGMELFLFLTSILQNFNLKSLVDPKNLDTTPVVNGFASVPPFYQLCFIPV
Observation Type: IC50 (nM)

Give its IC50 value. Item: Nc1cccc(-c2c(O)ccc3cc(-c4cccc(O)c4)ccc23)c1
1250

Try the molecule Oc1cccc(-c2ccc3c(-c4ccccc4)c(O)ccc3c2)c1
1640

----------
- System Tested: 17-beta-hydroxysteroid dehydrogenase type 2 (Homo sapiens)
- Sequence (whole entry): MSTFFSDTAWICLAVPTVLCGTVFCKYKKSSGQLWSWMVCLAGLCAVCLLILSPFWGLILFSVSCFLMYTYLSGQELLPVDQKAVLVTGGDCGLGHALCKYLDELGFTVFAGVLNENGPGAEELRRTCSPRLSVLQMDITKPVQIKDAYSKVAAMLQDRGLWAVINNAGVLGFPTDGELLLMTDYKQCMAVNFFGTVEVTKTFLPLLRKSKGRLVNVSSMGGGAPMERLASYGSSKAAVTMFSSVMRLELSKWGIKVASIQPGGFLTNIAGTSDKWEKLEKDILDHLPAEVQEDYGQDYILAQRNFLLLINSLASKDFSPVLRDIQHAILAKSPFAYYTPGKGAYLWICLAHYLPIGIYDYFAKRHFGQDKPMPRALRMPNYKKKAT
- Protocol Details: Inhibition of [3H]E2 binding to human placental 17beta-HSD2 at 1 uM after 10 mins by fluid scintillation counting
Observation Type: inhibition (%)

What reported inhibition corresponds to Cn1cc(-c2c(O)ccc3cc(-c4cccc(O)c4)ccc23)cn1 on 17-beta-hydroxysteroid dehydrogenase type 2 (Homo sapiens)?
24

Try the molecule Oc1cccc(-c2ccc3c(-c4ccc5[nH]ccc5c4)c(O)ccc3c2)c1
19

A = Oc1ccc(-c2ccc3c(-c4cncnc4)c(O)ccc3c2)cc1
B = COc1ncc(-c2c(O)ccc3cc(-c4cccc(O)c4)ccc23)c(OC)n1
C = Oc1cccc(-c2ccc3c(-c4cncnc4)c(O)ccc3c2)c1
Sort low-to-high on inhibition, please. Answer by naming the labels in the order asked.
B, A, C
(B: 9%, A: 22%, C: 85%)

FYI, the data here is from ChEMBL document CHEMBL1649421.
